Kindly state Neutralization IC50, H5-VM04 for each of the entries shown.
target: HA of ca A/Vietnam/1203/04 (H5N1) (influenza A virus); assay: cell-based or functional assay
Provide only the numeric value, understood in µg/mL.

Per the records, this binder ( Antibody 14 (antibody, V domains shown) VH: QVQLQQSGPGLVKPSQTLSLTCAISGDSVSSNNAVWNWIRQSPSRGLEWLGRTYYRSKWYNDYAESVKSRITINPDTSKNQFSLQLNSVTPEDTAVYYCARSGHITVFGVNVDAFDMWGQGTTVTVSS VL: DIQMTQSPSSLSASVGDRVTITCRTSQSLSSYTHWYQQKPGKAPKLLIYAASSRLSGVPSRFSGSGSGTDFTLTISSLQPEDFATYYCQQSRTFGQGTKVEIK ) has Neutralization IC50, H5-VM04 equal to 0.33

Per the records, this binder ( Antibody 3 (antibody, V domains shown) VH: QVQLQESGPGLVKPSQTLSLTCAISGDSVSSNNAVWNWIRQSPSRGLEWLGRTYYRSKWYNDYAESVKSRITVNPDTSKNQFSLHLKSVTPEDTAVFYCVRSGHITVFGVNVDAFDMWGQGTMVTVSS VL: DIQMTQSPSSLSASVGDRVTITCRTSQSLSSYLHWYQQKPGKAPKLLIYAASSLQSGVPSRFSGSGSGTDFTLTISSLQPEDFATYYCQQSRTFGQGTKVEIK ) has Neutralization IC50, H5-VM04 equal to 1.19

Per the records, this binder ( Antibody 15 (antibody, V domains shown) VH: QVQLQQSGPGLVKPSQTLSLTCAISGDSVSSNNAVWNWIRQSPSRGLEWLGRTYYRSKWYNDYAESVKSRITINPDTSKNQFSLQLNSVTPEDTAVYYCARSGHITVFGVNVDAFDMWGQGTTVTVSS VL: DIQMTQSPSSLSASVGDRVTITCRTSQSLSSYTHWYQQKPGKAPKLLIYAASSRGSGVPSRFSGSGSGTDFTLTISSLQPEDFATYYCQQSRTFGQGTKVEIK ) has Neutralization IC50, H5-VM04 equal to 0.28

These entries and their values trace back to patent US20160257732A1.
